Test: Preliminary RSV solubility tests in buffer solutions
Format: physicochemical
Conditions: PBS buffer solution with BSA 5% w/v, pH 7.4, thermodynamic from solid, PBS + BSA 5%, 32 °C, mean ± SE (n = 3)
Method: […] The suspension was kept in a thermostatic water bath (Heidolph MR3001K Hotplate Stirrer with Heidolph EXT3001 Temperature Probe, Heidolph Instruments, Schwabach, Germany) at 32 °C and stirred for 120 min. The samples were then centrifuged for 15 min at 15.000 rpm (mySPIN™ 12 Mini Centrifuge, Thermo Fisher Scientific, Waltham, MA, USA), to remove any precipitate. The supernatant was collected, diluted in methanol, and quantified by a UV-Vis spectrophotometer. […]

compound	solubility at 120 min (µg/mL)
Oc1ccc(/C=C/c2cc(O)cc(O)c2)cc1 [RSV, 3,4′, 5-trihydroxy-trans-stilbene]	442

====

assay: Preliminary RSV solubility tests in buffer solutions; assay type: physicochemical; settings: PBS buffer solution with DMSO 10% v/v, pH 7.4, aqueous with cosolvent or surfactant or cyclodextrin, thermodynamic from solid, PBS + DMSO 10%, 32 °C, mean ± SE (n = 3)
readoutKind: solubility at 120 min (µg/mL)

molecule	valueObserved
Oc1ccc(/C=C/c2cc(O)cc(O)c2)cc1 [RSV, 3,4′, 5-trihydroxy-trans-stilbene]	194

====

experiment: Preliminary RSV solubility tests in buffer solutions; format: physicochemical; conditions: PBS buffer solution with α-CD 0.5% w/v, pH 7.4, aqueous with cosolvent or surfactant or cyclodextrin, thermodynamic from solid, PBS + α-CD 0.5%, 32 °C, mean ± SE (n = 3)

compound	solubility at 120 min (µg/mL)
Oc1ccc(/C=C/c2cc(O)cc(O)c2)cc1 [RSV, 3,4′, 5-trihydroxy-trans-stilbene]	153
